B1: library; a variant is named by its letters at X, in order (parent)
chain: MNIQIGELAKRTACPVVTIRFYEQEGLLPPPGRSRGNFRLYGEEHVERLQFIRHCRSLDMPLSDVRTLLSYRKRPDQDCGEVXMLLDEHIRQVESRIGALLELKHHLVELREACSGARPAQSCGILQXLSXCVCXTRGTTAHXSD

Variants of: B1
Experiment: sfGFP reporter fluorescence (15 h) (µM FITC); higher = stronger transcriptional activation
Settings: library round: Round 2; ligand: 1 µM Pb
Response field class: string, computed from recorded sfGFP reporter fluorescence by ranges bottom bin = under 0.08, middle bin = from 0.08 up to 0.2, top bin = 0.2 and over

NGDDP P61N L107C E109H
top bin

Q: Classify this variant: NMDDP K104V L107S
A: middle bin

Q: Classify this variant: NICDP M60L D64K
A: top bin

Q: Classify this variant: NGTDP S115G V133P
A: bottom bin

Q: Classify this variant: TGDDP V82I L85K
A: bottom bin

Q: Classify this variant: TGAPW
A: middle bin
